Tested on: M14
measurementNotes: NCI tumour cell line growth inhibition, 48 h
Calls of active or inactive are those of the source. Rule as the data show it: active = GI50 up to about 1.1 µM and inactive = higher. Starred links: 1 amine or outer side, 2 acyl side, 3 side chain; linkers in the order of their positions; H or OH if unused. Non-standard residues stand in square brackets, D forms with d. Residues, ends and D or L forms follow the SMILES beside them. X41 = CSCCCC(N[*:1])C(=O)[*:2]
quantityKind: GI50

Give the observed GI50 of `Cc1oc2nc1C(=O)NCc1nc(cs1)C(=O)N[C@H](C(C)C)c1nc(cs1)C(=O)N[C@H]2C` for M14.
> 100 µM (inactive)

Give GI50 only, for OCC(S)CS.[Bi] (centres undefined) , using M14 data.
8.36 µM (inactive)

Name the recorded GI50 of `Cc1ccc(C(=O)/C=C/c2ccccc2Cl)cc1` , assay system M14.
17.6 µM (inactive)

Provide measured GI50 on M14 for NC(Cc1ccccc1)C(=O)OCN1C(=O)C2C3C=CC(C2C1=O)C1C2C(=O)N(COC(=O)C(N)Cc4ccccc4)C(=O)C2C31 (centres undefined) please.
20.4 µM (inactive)

Give the observed GI50 of CSCCCC(NC(=O)CNC(=O)C1CCCN1C(=O)C(Cc1ccc(O)cc1)NC(=O)C(Cc1ccccc1)NC(=O)C(CCCNC(=N)N)NC(=O)C(CC(=O)O)NC(=O)C1CCCN1C(=O)C(CC(=O)O)NC(=O)C1CCCN1C(=O)C1CCCN1C(=O)CN)C(N)=O (centres undefined) (H-GPPDPDRFYPG[X41]-NH2; configuration not given here) for M14.
> 50 µM (inactive)

Hey, quick one: what's GI50 for each of these?
1. C=CC(Br)(CBr)CCC(Br)C(C)C (centres undefined)
2. CCCCCCCCCCCCCCCCCCOCC(C[N+]1(C)CCC(O)CC1)OCC (centres undefined)

1. 4.16 µM (inactive)
2. 9.51 µM (inactive)

Provide GI50 for all items below, preserving their order.
1. NS(=O)(=O)c1nn2c(Br)c(-c3ccccc3)nc2s1
2. CC1(C)CC23CC(C)(C)c4cccc(c42)OCc2ccc4ccc5ccc(nc5c4n2)COc2cccc1c23

3.31 µM (inactive)
> 50 µM (inactive)

----------
Test system: SR
measurementNotes: NCI tumour cell line growth inhibition, 48 h
The source made the active and inactive calls. Rule as the data show it: active = GI50 up to about 1.1 µM and inactive = higher.
quantityKind: GI50

Worked cases, answers included:
Note down GI50 recorded for `COc1ccc(C[C@H]2COC(=O)[C@@H]2Cc2cccc(Br)c2)cc1OC`
3.05 µM (inactive)

Provide only the value of recorded GI50 for `NS(=O)(=O)c1nn2c(Br)c(-c3ccccc3)nc2s1`
1.88 µM (inactive)

Give the reported value of GI50 for this record: O=C1N/C(=N/N=C\C(O)C(O)C(O)C(O)CO)N/C1=C/c1ccc(Cl)cc1 (stereo not drawn)
47.2 µM (inactive)

// for each compound in input: emit GI50
1. CC[C@@H](CCCC[C@@H]1CC[C@H]2CC(=O)C[C@@H]12)OC
2. COc1ccc(NC(=O)CC(=O)N2N=C(N(CCC#N)c3cccc(C)c3)CC2c2ccccc2)cc1 (stereo not drawn)
3. CC1CCN(C(C)C)P(=S)(Cc2ccccc2)O1 (stereo not drawn)
4. CC1CSC(=S)N1C(=O)N1C(=S)SCC1C (stereo not drawn)
5. Cc1nnc(-n2c(O)cc(=O)n(-c3ccccc3)c2=S)nc1/C=C/c1ccc(N(C)C)cc1
6. CC1=CC(=O)c2cccc(O)c2C1=O

> 100 µM (inactive)
> 100 µM (inactive)
> 100 µM (inactive)
12.5 µM (inactive)
5.02 µM (inactive)
1.8 µM (inactive)

Quick request: GI50 for each listed item, please.
1. COc1ccc2c(c1)CCc1cnn(C3OC(COC(C)=O)C(OC(C)=O)C(OC(C)=O)C3OC(C)=O)c1-2 (stereo not drawn)
2. Oc1c(Cl)cc(CN(Cc2cc(Cl)c(O)c(Cl)c2)C2CCCCC2)cc1Cl

26.1 µM (inactive)
> 100 µM (inactive)

Please give GI50, item by item, for the list that follows.
1. CC1(C)C(=O)C2(N)CCC1C2 (stereo not drawn)
2. O=[N+]([O-])CC(SCc1ccccc1)c1ccc2c(c1)OCO2 (stereo not drawn)
3. O=C1CCCC1C(O)(C(F)(F)Cl)C(F)(F)Cl (stereo not drawn)
4. NC(Cc1ccccc1)C(=O)OCN1C(=O)C2C3C=CC(C2C1=O)C1C2C(=O)N(COC(=O)C(N)Cc4ccccc4)C(=O)C2C31 (stereo not drawn)
5. O=c1c2cc([N+](=O)[O-])ccc2n(Cc2ccccc2)n1Cc1ccccc1
6. C1=CCN(c2ccccc2)CC1
7. O=C(/C=C/c1ccccc1)Oc1ccc(C(=O)/C=C/c2ccccc2)cc1

1: > 100 µM (inactive); 2: 3.13 µM (inactive); 3: > 10 µM (inactive); 4: 27.7 µM (inactive); 5: 14 µM (inactive); 6: 2.93 µM (inactive); 7: 2.1 µM (inactive)

----------
System: MDA-MB-435
measurementNotes: NCI tumour cell line growth inhibition, 48 h
Activity calls are given as the source filed them. Rule as the data show it: active = GI50 up to about 1.1 µM and inactive = higher. Starred links: 1 amine or outer side, 2 acyl side, 3 side chain; linkers in the order of their positions; H or OH if unused. Non-standard residues stand in square brackets, D forms with d. Residues, ends and D or L forms follow the SMILES beside them. X41 = CSCCCC(N[*:1])C(=O)[*:2]
quantityKind: GI50

Check out these entries, answers already filled in.
Consider the molecule NC1=NC(c2ccc(Cl)cc2)N(c2ccc(S(=O)(=O)Nc3ncccn3)cc2)C(N)=N1 (stereo not drawn) . State its measured GI50.
> 100 µM (inactive)

Return GI50 (reported value) for this molecule: CSCCCC(NC(=O)CNC(=O)C1CCCN1C(=O)C(Cc1ccc(O)cc1)NC(=O)C(Cc1ccccc1)NC(=O)C(CCCNC(=N)N)NC(=O)C(CC(=O)O)NC(=O)C1CCCN1C(=O)C(CC(=O)O)NC(=O)C1CCCN1C(=O)C1CCCN1C(=O)CN)C(N)=O (stereo not drawn) (H-GPPDPDRFYPG[X41]-NH2; configuration not given here)
> 50 µM (inactive)

Return the recorded GI50 value; entry: `Cn1c(S)nnc1CNc1ccc(-c2nnc(S)n2C)cc1`
> 100 µM (inactive)

Let me know recorded GI50 for `CN(/N=C/c1ccc(Cl)c(Cl)c1)C1=NCCN1` , thanks.
19.5 µM (inactive)

Give recorded GI50. CC1CCC2C(C)(C)CC3(C)CCC1C23O (stereo not drawn)
15.6 µM (inactive)

Output measured GI50 for this item: O=c1c2ccccc2nc2n1C(c1ccc([N+](=O)[O-])cc1)C2(c1ccccc1)c1ccccc1 (stereo not drawn)
> 100 µM (inactive)

Return value of GI50 for input `COC(=O)[C@@H]1CN(C(=O)c2ccccc2)C(=O)N1C(=O)OCc1ccccc1` , no commentary.
> 100 µM (inactive)

Turning now to a further molecule:
Return GI50 (reported value) for this molecule: `CC[C@@H](CCCC[C@@H]1CC[C@H]2CC(=O)C[C@@H]12)OC`
> 100 µM (inactive)

----------
Exercise: for every item that follows, state its recorded GI50.
Test system: UACC-257
measurementNotes: NCI tumour cell line growth inhibition, 48 h
The source made the active and inactive calls. No stated cut-off is given here; in the data, active = GI50 up to about 1.1 µM and inactive = higher.

Sample answers from the record:
Give me measured GI50, please, for this compound: CC(=O)OC1C=CC2CCN3C(=O)c4cc5c(cc4[C@H]1C23)OCO5 (stereo partly specified)
> 100 µM (inactive)

Supply recorded GI50 for `Cn1c(S)nnc1CNc1ccc(-c2nnc(S)n2C)cc1` here.
> 100 µM (inactive)

# return recorded GI50 for input NC(=S)N/N=C1/C(=O)N(c2ccccc2)C(=O)C1C(=O)Nc1ccccc1 (stereo unspecified)
> 100 µM (inactive)

Give the reported GI50 for this compound. `Cc1nc2sc(C(=O)c3ccc(Cl)cc3)c(N)c2c(-c2ccccc2Cl)c1C(=O)Nc1ccccc1`
18.6 µM (inactive)

Note GI50 for the compound shown: `N/C(=N\c1ccc(Cl)cc1)NS(=O)(=O)c1cccc2nsnc12`
13.9 µM (inactive)

Tell us which GI50 value is on record for CN1C(=O)N(C)C2(CCN(CC(CC3OCCO3)c3ccc(F)cc3)CC2)C1=O (stereo unspecified)
> 100 µM (inactive)

Required: GI50, one value per compound below.
1. Clc1ccccc1CN1COc2c(cc(Cl)c3cccnc23)C1
2. COC(O)C(=O)c1c2c(cc3c1CC1(Cc4cc5c(cc4C1)CCC5)C3)CCC2 (stereo unspecified)
3. CN(C)NC(=S)NC12CC3CC(CC(C3)C1)C2
4. CC(C)(C)OC(=O)N1CCC2(C)CC(=O)CC=C12 (stereo unspecified)

1: 3.43 µM (inactive); 2: 18.7 µM (inactive); 3: > 100 µM (inactive); 4: 28.2 µM (inactive)

Working through the 6 compounds below one at a time, give GI50 for each.
1. COc1ccc(C(=O)/C=C/c2ccc(OCC(=N)N)cc2)cc1
2. CC1Cn2c(nc3ccccc32)NC1=O (stereo unspecified)
3. CCOC(=S)SC/C(=N\OC(C)(C)OC)c1ccccc1
4. O=C(O[C@H]1[C@@H]2C=CO[C@@H](OC3OC(CO)C(O)C(O)C3O)[C@@H]2[C@@]2(CO)O[C@@H]12)c1ccc(O)c(O)c1 (stereo partly specified)
5. COc1cc(C(c2ccc3c(c2)OCO3)N2C(=O)CCC2C(=O)O)cc(OC)c1OC (stereo unspecified)
6. COc1oc(C2C/C(=C/C(C)=C/C(C)=C/C(C)=C/c3ccc([N+](=O)[O-])cc3)CO2)c(C)c(=O)c1C (stereo unspecified)

["18.5 µM (inactive)", "> 100 µM (inactive)", "35.3 µM (inactive)", "> 100 µM (inactive)", "> 100 µM (inactive)", "5.32 µM (inactive)"]

// input: 5 compounds below; output: GI50 for each
1. COc1ccc(C2=NOP(c3ccccc3)(c3ccccc3)(c3ccccc3)C2)cc1
2. O=c1cc(-c2ccccc2)[nH]c2c(F)ccc(F)c12
3. C1CSCCSCCCS[C@@H]2CCCCC2SC1 (stereo partly specified)
4. Cc1ccc(-c2c(-c3ccccc3)[nH]c(C)c2C(=O)ONC(=O)c2ccccc2)cc1
5. O=C(Cc1cc(=O)oc2cc(O)ccc12)N/N=C/c1ccc(N(CCCl)CCCl)cc1

28.8 µM (inactive)
> 100 µM (inactive)
> 100 µM (inactive)
13.7 µM (inactive)
22.1 µM (inactive)
